- TEST_TARGET: T1, Recombinant Human DLL4 (Cat# 1506-D4/CF, R&D Systems) (human, UniProt Q9NR61 27-529)
- T1 construct: Bought protein; also called rHuman DLL4; hDLL4
- TEST_SUMMARY: ELISA, DLL4 coated
Consider the following binders and their measured fold increased binding affinity against the antibody mutants with heavy chain H:APFF ALTH readings.

{"BINDER": "Fab H:APFF LTH & L:NDH LS (Fab, V domains shown, Fab, kappa light chain) VH: QVQLVQSGAEVKKPGASVKVSCKASGYTFTSYYMHWVRQAPGQGLEWMGIILPTGHSTSYAQKFQGRVTMTRDTSTSTVYMELSSLRSEDTAVYYCAREEYAPFSAEYFQFWGQGTLVTVSS VL: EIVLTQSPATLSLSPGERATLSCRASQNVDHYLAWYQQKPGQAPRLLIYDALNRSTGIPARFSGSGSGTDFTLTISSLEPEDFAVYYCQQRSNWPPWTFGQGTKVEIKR", "MEASURED_RESULT": "~10 fold"}
{"BINDER": "Fab H:APFF VLTH & L:NDH LG (Fab, V domains shown, Fab, kappa light chain) VH: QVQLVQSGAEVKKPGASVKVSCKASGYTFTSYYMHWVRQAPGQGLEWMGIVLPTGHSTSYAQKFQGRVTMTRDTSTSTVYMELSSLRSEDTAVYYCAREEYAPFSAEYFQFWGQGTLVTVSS VL: EIVLTQSPATLSLSPGERATLSCRASQNVDHYLAWYQQKPGQAPRLLIYDALNRGTGIPARFSGSGSGTDFTLTISSLEPEDFAVYYCQQRSNWPPWTFGQGTKVEIKR", "MEASURED_RESULT": "~10 fold"}

Please examine the following record next.
Query block: State its fold increased binding affinity against the antibody mutants with heavy chain H:APFF ALTH for this binder: Fab VH1-46_IGHD6-6*01_IGHJ1*01 H:APFF VLTH & L6_IGKJ1*01 L:NDH LS (Fab, V domains shown, all other places give 370; also called Fab H:APFF VLTH & L:NDH LS; anti-DLL4 Fab H:APFF VLTH & L:NDH LS) VH: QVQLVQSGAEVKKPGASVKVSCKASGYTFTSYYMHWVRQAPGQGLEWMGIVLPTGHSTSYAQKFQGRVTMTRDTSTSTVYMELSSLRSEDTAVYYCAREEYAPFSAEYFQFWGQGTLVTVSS VL: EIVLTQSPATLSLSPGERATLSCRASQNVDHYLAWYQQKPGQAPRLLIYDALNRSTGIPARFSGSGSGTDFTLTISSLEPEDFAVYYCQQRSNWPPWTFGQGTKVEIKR
Result block: ~10 fold
